Test: protein stability index of a GFP-peptide fusion (yeast GPS) (PSI 1-4); higher = more stable; sorted into four equal gates, so the index is relative within each strain
Settings: pdr5∆
# Lookup of reported protein stability index keyed by entry

RESIDUE_CODES: RLTAKRLIEHDPVEGNL [SRP14]
protein stability index: 2.29

RESIDUE_CODES: EIALKGLESLLNIGLGA [YCS4]
protein stability index: 2.47

RESIDUE_CODES: FYAAVQKNYADPEKDSI [SIN4]
protein stability index: 2.58

RESIDUE_CODES: DGRSFDQFRDVEITFGK [RRP45]
protein stability index: 3.3

RESIDUE_CODES: QTENDLKDIEARIKEKA [RPT1]
protein stability index: 2.91

RESIDUE_CODES: DESDTISFRSNLLKNFI [SNF6]
protein stability index: 2.55

RESIDUE_CODES: QTQQDLPKVRYNVEKVK [NSL1]
protein stability index: 2.57

RESIDUE_CODES: KDIKANLSSNVNFTEIG [YCS4]
protein stability index: 2.74

RESIDUE_CODES: TTNMNVNNCIWALKSSL [RGR1]
protein stability index: 1.32

RESIDUE_CODES: IFSVHGNTVVDGEGKVD [YCG1]
protein stability index: 3.46

RESIDUE_CODES: LEQEYRLILLLNHRNKN [RMP1]
protein stability index: 1.18

RESIDUE_CODES: IQQLISQFLKRVHANLQ [SNF11]
protein stability index: 1.61

RESIDUE_CODES: MHALKNRSEQNGQEQQG [RGR1]
protein stability index: 3.06

RESIDUE_CODES: TMIKKTTLVTRREELQQ [SMC3]
protein stability index: 2.94

RESIDUE_CODES: VKSKIQDKEGIPPDQQR [RPS31]
protein stability index: 3.48

RESIDUE_CODES: YPRLQDPSRELNVIIDQ [YCS4]
protein stability index: 3.09

RESIDUE_CODES: SIGRTAQGKEFGVTKAR [RPL17A]
protein stability index: 3.44

RESIDUE_CODES: LPKLNLPKYQTIQYDPP [SNF5]
protein stability index: 2.6

RESIDUE_CODES: NEIEGKNEETPQNEKPP [RPC25]
protein stability index: 3.14

RESIDUE_CODES: ILGDLGKEFGTTPEKPE [FAS2]
protein stability index: 2.69

RESIDUE_CODES: KDEYLAQLDGRIGVLQA [NSL1]
protein stability index: 2.4

RESIDUE_CODES: GYDDFQEEGSFEFGNMK [FAS2]
protein stability index: 3.26

RESIDUE_CODES: KLYTKELSVTGSAINHH [YMR129W/POM152]
protein stability index: 1.35

RESIDUE_CODES: STLYKYLKESKRKYDEI [SWI3]
protein stability index: 3.42

RESIDUE_CODES: GTLEYGTCFGGSKLEDM [RET1]
protein stability index: 3.16

RESIDUE_CODES: KTPEEVEVYAKIFWERL [ISW2]
protein stability index: 2.91

RESIDUE_CODES: PGSRASSRFIKGGSLYG [RPN2]
protein stability index: 1.92

RESIDUE_CODES: LFLTAPDSCNMQEKAAH [YCS4]
protein stability index: 2.67

RESIDUE_CODES: YLCFILSTRAGGLGLNL [SNF2]
protein stability index: 2.04

RESIDUE_CODES: RKGGPATAEKLPNIYPS [RPT2]
protein stability index: 3.54

RESIDUE_CODES: LMTHITTDDEEEPIKKL [RET1]
protein stability index: 3.41
